- Test system: RARg homodimer (NR concentration 270 nM)
- assay details: PBM binding z-score (relative to random genomic background probes); higher = stronger binding; sequences stand for … in GC…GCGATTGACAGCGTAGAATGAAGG
observable: PBM binding z-score

>>> recorded_result("CGACAAAGTTCAACTAAGGTAACGTAAAGCACGC")
6.69
>>> recorded_result("CTCGAAAGGTCGGTTGAGGTAAGTATACGGATAA")
2.35
>>> recorded_result("TAGCTTAGGTCATGGGCCAGTATACCACGCGAAC")
4.67
>>> recorded_result("TCATATAGGTAAACAGGTGCAAGTCCGTAAGTTA")
0.0324
